- Test Name: Pharmacokinetics (PK) study in SD rat (IV, IP, PO; LC-MS/MS)
- Assay type: in vivo
- Condition Label: Sprague-Dawley, serum, IV, single dose 2 mg/kg, read-out: clearance rate, mean value
Measured Metric: clearance

compound="COc1cc(N2CCC(N3CCN(C(=O)CNc4cccc5c4C(=O)N(C4CCC(=O)NC4=O)C5=O)CC3)CC2)ccc1Nc1ncc(Cl)c(Nc2ccccc2P(C)(C)=O)n1 (stereo not shown)" obs_value="~22.6 mL/min/kg"
compound="COc1cc(N2CCC(N3CCN(C(=O)CCOCCOCCNc4cccc5c4C(=O)N(C4CCC(=O)NC4=O)C5=O)CC3)CC2)ccc1Nc1ncc(Cl)c(Nc2ccccc2P(C)(C)=O)n1 (stereo not shown)" obs_value="~414 mL/min/kg"
compound="COc1cc(N2CCC(NC(=O)CCCNc3cccc4c3C(=O)N(C3CCC(=O)NC3=O)C4=O)CC2)ccc1Nc1ncc(Cl)c(Nc2ccccc2P(C)(C)=O)n1 (stereo not shown)" obs_value="~6.35 mL/min/kg"
compound="COc1cc(N2CCC(N3CCN(C(=O)CCCCCCNc4cccc5c4C(=O)N(C4CCC(=O)NC4=O)C5=O)CC3)CC2)ccc1Nc1ncc(Cl)c(Nc2ccccc2P(C)(C)=O)n1 (stereo not shown)" obs_value="~88.2 mL/min/kg"

###

molecules and their reported DC50
- Measurement Target: ALK protein in H3122 (EML4-ALK) cells (Homo sapiens)
- Construct: EML4 (Echinoderm microtubule-associated protein-like 4, Q9HC35) fusion partner, variant 1; host or cells: NCI-H3122 lung adenocarcinoma cells; the other entry of the earlier key: EML4 (Q9HC35, Echinoderm microtubule-associated protein-like 4)
- Sequence (Q9UM73 with tags, fused parts or gaps): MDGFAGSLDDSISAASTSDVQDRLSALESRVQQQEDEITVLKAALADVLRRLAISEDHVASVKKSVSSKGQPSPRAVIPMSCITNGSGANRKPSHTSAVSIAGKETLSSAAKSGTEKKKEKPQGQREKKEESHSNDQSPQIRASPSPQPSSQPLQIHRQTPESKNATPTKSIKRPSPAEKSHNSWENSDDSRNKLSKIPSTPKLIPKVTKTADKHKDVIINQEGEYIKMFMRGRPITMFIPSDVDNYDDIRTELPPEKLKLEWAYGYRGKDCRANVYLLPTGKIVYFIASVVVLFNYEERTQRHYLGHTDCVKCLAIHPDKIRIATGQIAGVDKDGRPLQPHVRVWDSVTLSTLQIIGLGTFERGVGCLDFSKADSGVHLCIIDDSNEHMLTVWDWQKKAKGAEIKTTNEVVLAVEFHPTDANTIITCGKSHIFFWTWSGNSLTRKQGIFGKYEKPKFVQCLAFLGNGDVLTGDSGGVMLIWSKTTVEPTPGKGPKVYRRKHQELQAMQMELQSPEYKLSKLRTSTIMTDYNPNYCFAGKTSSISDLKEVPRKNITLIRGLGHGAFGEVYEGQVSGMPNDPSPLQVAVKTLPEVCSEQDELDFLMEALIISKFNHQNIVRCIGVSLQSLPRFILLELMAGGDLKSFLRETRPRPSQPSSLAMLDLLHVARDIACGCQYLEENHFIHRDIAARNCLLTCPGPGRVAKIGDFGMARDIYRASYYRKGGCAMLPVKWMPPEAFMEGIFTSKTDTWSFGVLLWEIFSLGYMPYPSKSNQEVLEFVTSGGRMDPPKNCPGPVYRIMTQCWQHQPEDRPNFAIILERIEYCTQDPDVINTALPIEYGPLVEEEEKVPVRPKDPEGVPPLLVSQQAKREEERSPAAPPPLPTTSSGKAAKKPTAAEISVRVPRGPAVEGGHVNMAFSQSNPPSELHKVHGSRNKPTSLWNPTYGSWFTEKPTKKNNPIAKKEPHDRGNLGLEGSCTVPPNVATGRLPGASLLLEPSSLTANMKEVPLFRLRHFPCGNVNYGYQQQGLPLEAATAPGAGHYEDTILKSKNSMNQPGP
- Test Name: Western blot of ALK protein level (degradation, DC50), ALK phosphorylation and downstream signaling in H3122 cells
- Type: cell-based
- Condition Label: ALK protein degradation in H3122 cells
Measured Metric: DC50

molecule=COc1cc(N2CCC(N3CCN(C(=O)CCCCCC(=O)N[C@H](C(=O)N4C[C@H](O)C[C@H]4C(=O)NCc4ccc(-c5scnc5C)cc4)C(C)(C)C)CC3)CC2)ccc1Nc1ncc(Cl)c(Nc2ccccc2P(C)(C)=O)n1 measurement_target="ALK protein in H3122 (EML4-ALK) cells (Homo sapiens)" measured_metric=DC50 obs_value="10 to 50 nM"
molecule=COc1cc(N2CCC(NC(=O)CCCCC(=O)N[C@H](C(=O)N3C[C@H](O)C[C@H]3C(=O)NCc3ccc(-c4scnc4C)cc3)C(C)(C)C)CC2)ccc1Nc1ncc(Cl)c(Nc2ccccc2P(C)(C)=O)n1 measurement_target="ALK protein in H3122 (EML4-ALK) cells (Homo sapiens)" measured_metric=DC50 obs_value="50 to 100 nM"
molecule="COc1cc(N2CCN(C(=O)CCOCCOCCNc3cccc4c3C(=O)N(C3CCC(=O)NC3=O)C4=O)CC2)ccc1Nc1ncc(Cl)c(Nc2ccccc2P(C)(C)=O)n1 (centres unmarked)" measurement_target="ALK protein in H3122 (EML4-ALK) cells (Homo sapiens)" measured_metric=DC50 obs_value="100 to 500 nM"
molecule="C[C@@H](Oc1cc(-c2cnn(C3CCN(C(=O)CCCCNc4cccc5c4C(=O)N(C4CCC(=O)NC4=O)C5=O)CC3)c2)cnc1N)c1c(Cl)ccc(F)c1Cl (some centres unmarked)" measurement_target="ALK protein in H3122 (EML4-ALK) cells (Homo sapiens)" measured_metric=DC50 obs_value="1 to 10 nM"
molecule=COc1cc(N2CCC(NC(=O)CCOCCOCCOCCOCCC(=O)N[C@H](C(=O)N3C[C@H](O)C[C@H]3C(=O)NCc3ccc(-c4scnc4C)cc3)C(C)(C)C)CC2)ccc1Nc1ncc(Cl)c(Nc2ccccc2P(C)(C)=O)n1 measurement_target="ALK protein in H3122 (EML4-ALK) cells (Homo sapiens)" measured_metric=DC50 obs_value="100 to 500 nM"
